Details: in gamma-butyrolactone, 323.15 K
QUANTITY: solubility (mole fraction)
Please reply with the number alone, leaving off any unit.

Which solubility (mole fraction) value is on record for `CC(CO)(CO)C(=O)O` ?
0.0187

---

Conditions: in 1,4-dioxane, 303.15 K
QUANTITY: solubility (mole fraction)
Kindly provide the number alone.

Item under review: `CC(CO)(CO)C(=O)O` . Reported solubility (mole fraction)?
0.00937

---

Conditions: in ethyl acetate, 318.15 K
QUANTITY: solubility (mole fraction)
Just the number.

Please look up its solubility (mole fraction): `CC(CO)(CO)C(=O)O`
0.00646

---

Conditions: in MIBK, 338.15 K
QUANTITY: solubility (mole fraction)
Give the figure only, with no unit attached.

Recorded solubility (mole fraction) for `CC(CO)(CO)C(=O)O` , please?
0.0259
